# MEASURED_ON: Albumin (Bos taurus)
# Sequence (P02769 whole entry): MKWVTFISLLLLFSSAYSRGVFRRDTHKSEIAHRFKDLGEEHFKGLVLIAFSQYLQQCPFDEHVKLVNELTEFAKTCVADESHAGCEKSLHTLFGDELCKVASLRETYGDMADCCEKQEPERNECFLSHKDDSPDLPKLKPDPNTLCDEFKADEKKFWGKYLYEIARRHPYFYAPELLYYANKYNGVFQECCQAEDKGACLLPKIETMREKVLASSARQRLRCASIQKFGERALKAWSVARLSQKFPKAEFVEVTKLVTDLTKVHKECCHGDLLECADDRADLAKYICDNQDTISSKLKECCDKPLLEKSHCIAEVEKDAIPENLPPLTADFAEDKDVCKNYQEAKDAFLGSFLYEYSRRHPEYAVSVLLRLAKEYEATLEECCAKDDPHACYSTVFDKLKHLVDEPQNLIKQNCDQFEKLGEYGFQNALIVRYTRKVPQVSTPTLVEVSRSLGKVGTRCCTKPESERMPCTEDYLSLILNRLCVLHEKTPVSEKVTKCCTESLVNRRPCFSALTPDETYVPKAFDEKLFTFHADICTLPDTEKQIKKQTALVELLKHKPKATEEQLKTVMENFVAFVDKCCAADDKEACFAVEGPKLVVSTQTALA
# ASSAY_INFO: Plasma protein binding in bovine serum albumin assessed as fraction bound at 10:1 ratio of compound and BSA by 1H DOSY NMR spectrophotometric analysis
# Type: ADME
# CONDITION: cattle, read-out: PPB (converted)
RESULT_TYPE: fraction unbound

Solved cases (2 shown):
| MOLECULE | fraction unbound |
| --- | --- |
| OC[C@H]1OC(O)[C@H](O)[C@@H]1O (some centres not stated) | 0.25 |
| COc1ccc2nc([S@@+]([O-])Cc3ncc(C)c(OC)c3C)[nH]c2c1 [ESOMEPRAZOLE] | 0.02 |

I: N[C@H]1C(O)O[C@H](CO)[C@@H](O)[C@@H]1O (some centres not stated) [GLUCOSAMINE]
II: Cn1c(=O)c2c(ncn2C)n(C)c1=O [CAFFEINE]
Between item I and item II , which reported fraction unbound is smaller? Reply with the label of the item you choose.
I
